For each entry below, report its inhibition value.
Target: Substance-P receptor (Homo sapiens) (UniProt P25103)
Sequence (P25103 whole entry): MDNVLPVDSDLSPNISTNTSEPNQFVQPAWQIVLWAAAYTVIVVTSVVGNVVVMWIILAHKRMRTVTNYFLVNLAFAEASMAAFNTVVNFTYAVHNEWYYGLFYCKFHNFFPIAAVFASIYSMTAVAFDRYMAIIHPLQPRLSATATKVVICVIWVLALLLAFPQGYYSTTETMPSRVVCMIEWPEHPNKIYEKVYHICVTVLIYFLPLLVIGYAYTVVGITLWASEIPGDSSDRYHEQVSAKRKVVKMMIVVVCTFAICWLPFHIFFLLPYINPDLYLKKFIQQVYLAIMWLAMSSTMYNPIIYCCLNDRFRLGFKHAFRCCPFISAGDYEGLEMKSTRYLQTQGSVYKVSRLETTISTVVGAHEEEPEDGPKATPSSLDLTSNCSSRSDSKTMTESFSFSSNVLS
Assay: Displacement of [125I]-BH-SP from NK1R (unknown origin) transfected in CHO cells at 10 uM by gamma counting analysis
Type: cell-based
Residues, ends and D or L forms follow the SMILES beside them.
Expressed in %, but write only the number.

q: Give the reported value of inhibition for this record: CSCC[C@H](NC(=O)[C@H](CC(C)C)NC(=O)CNC(=O)[C@H](Cc1ccccc1)N(C)C(=O)[C@H](Cc1ccccc1)NC(=O)[C@H](CCC(N)=O)NC(=O)[C@H](CC(=O)O)NC(=O)[C@H](CO)NC(=O)[C@H](CCCCN)NC(=O)[C@@H]1CCCN1C(=O)[C@@H](NC(=O)[C@@H](N)CC(=O)O)C(C)C)C(N)=O (HELM PEPTIDE1{D.V.P.K.S.D.Q.F.[meF].G.L.M.[am]}$$$$V2.0)
a: 46

q: Quick one: give measured inhibition for CSCC[C@H](NC(=O)[C@H](CC(C)C)NC(=O)CNC(=O)[C@H](Cc1ccccc1)N(C)C(=O)[C@H](Cc1ccccc1)NC(=O)[C@H](CC(=O)O)NC(=O)[C@H](CC(=O)O)NC(=O)[C@@H]1CCCN1C(=O)[C@H](CCCNC(=N)N)NC(=O)[C@@H]1CCCN1C(=O)[C@@H](N)CCCCN)C(N)=O (HELM PEPTIDE1{K.P.R.P.D.D.F.[meF].G.L.M.[am]}$$$$V2.0)
a: 26

----------
What inhibition was measured for each of the following?
Molecular target: UniProt:P21452
Sequence (P21452 whole entry): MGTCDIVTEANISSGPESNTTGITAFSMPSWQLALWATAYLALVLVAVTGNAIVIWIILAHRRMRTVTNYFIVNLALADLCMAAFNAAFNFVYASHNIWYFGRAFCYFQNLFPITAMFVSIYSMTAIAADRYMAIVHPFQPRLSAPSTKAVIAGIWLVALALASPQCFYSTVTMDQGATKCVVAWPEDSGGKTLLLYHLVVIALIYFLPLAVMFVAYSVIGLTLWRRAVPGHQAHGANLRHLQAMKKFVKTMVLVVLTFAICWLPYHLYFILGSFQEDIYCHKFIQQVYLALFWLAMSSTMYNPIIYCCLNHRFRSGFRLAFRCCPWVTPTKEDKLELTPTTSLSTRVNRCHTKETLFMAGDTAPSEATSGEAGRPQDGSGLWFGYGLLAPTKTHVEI
Assay: Displacement of [125I]-NKA from NK2R (unknown origin) transfected in CHO cells at 10 uM by gamma counting analysis
Assay type: cell-based
Residues, ends and D or L forms follow the SMILES beside them.
Express your answer in %, writing the number without its unit.

q: Please supply the value of reported inhibition for the item CSCC[C@H](NC(=O)[C@H](CC(C)C)NC(=O)CNC(=O)[C@H](Cc1ccccc1)N(C)C(=O)[C@H](Cc1ccccc1)NC(=O)[C@H](CCC(N)=O)NC(=O)[C@H](CC(=O)O)NC(=O)[C@H](Cc1cnc[nH]1)NC(=O)[C@H](CCSC)NC(=O)[C@@H](N)CC(=O)O)C(N)=O (HELM PEPTIDE1{D.M.H.D.Q.F.[meF].G.L.M.[am]}$$$$V2.0)
a: 21

q: Find the measured inhibition of CSCC[C@H](NC(=O)[C@H](CC(C)C)NC(=O)CNC(=O)[C@H](Cc1ccccc1)N(C)C(=O)[C@H](Cc1ccccc1)NC(=O)[C@H](C)NC(=O)[C@H](CC(=O)O)NC(=O)[C@H](Cc1cnc[nH]1)NC(=O)[C@H](CCSC)NC(=O)[C@@H](N)CC(=O)O)C(N)=O (HELM PEPTIDE1{D.M.H.D.A.F.[meF].G.L.M.[am]}$$$$V2.0) and report it.
a: 33

q: Please give the documented inhibition of CSCC[C@H](NC(=O)[C@H](CC(C)C)NC(=O)CNC(=O)[C@H](Cc1ccccc1)N(C)C(=O)[C@H](Cc1ccccc1)NC(=O)[C@@H]1CCCN1C(=O)[C@H](CC(=O)O)NC(=O)[C@H](Cc1cnc[nH]1)NC(=O)[C@H](CCSC)NC(=O)[C@@H](N)CC(=O)O)C(N)=O (HELM PEPTIDE1{D.M.H.D.P.F.[meF].G.L.M.[am]}$$$$V2.0)
a: 38

----------
Target: Substance-P receptor (Homo sapiens)
Experiment: Displacement of [125I]-BH-SP from NK1R (unknown origin) transfected in CHO cells at 10 uM by gamma counting analysis
Format: cell-based
Residues, ends and D or L forms follow the SMILES beside them.
property_name: inhibition

q: State inhibition (Substance-P receptor (Homo sapiens)) of CSCC[C@H](NC(=O)[C@H](CC(C)C)NC(=O)CNC(=O)[C@H](Cc1ccccc1)N(C)C(=O)[C@H](Cc1ccccc1)NC(=O)CNC(=O)[C@H](CC(=O)O)NC(=O)[C@H](Cc1cnc[nH]1)NC(=O)[C@H](CCSC)NC(=O)[C@@H](N)CC(=O)O)C(N)=O (HELM PEPTIDE1{D.M.H.D.G.F.[meF].G.L.M.[am]}$$$$V2.0) .
a: < 10%

q: Send back Substance-P receptor (Homo sapiens) inhibition of CSCC[C@H](NC(=O)[C@H](CC(C)C)NC(=O)CNC(=O)[C@H](Cc1ccccc1)N(C)C(=O)[C@H](Cc1ccccc1)NC(=O)[C@H](Cc1ccccc1)NC(=O)[C@H](CC(=O)O)NC(=O)[C@H](Cc1cnc[nH]1)NC(=O)[C@H](CCSC)NC(=O)[C@@H](N)CC(=O)O)C(N)=O (HELM PEPTIDE1{D.M.H.D.F.F.[meF].G.L.M.[am]}$$$$V2.0) only.
a: < 10%

----------
Please go through the items and note down their pIC50.
Target: Neuromedin-K receptor (Homo sapiens, UniProt P29371)
Sequence (P29371 whole entry): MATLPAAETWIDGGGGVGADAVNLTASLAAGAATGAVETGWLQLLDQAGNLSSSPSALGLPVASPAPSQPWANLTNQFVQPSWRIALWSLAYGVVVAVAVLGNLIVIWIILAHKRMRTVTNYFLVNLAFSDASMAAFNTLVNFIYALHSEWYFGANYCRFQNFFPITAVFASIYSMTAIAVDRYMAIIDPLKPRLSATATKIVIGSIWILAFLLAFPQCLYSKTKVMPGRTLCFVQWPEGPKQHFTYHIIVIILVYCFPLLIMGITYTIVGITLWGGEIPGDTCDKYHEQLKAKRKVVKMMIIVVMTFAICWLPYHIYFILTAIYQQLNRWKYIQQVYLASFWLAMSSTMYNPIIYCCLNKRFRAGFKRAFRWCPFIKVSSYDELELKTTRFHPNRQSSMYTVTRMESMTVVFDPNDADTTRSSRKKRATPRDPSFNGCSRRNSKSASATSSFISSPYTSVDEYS
Assay: Displacement of ([125I]-His3, MePhe7)-NKB from NK3R (unknown origin) transfected in CHO cells by gamma counting analysis
Format: cell-based
Residues, ends and D or L forms follow the SMILES beside them.
Units for pIC50: none; it is -log10 of a concentration expressed in mol/L.

q: Enter measured pIC50, system Neuromedin-K receptor (Homo sapiens, UniProt P29371), for the compound shown: CSCC[C@H](NC(=O)[C@H](CC(C)C)NC(=O)CNC(=O)[C@H](Cc1ccccc1)N(C)C(=O)[C@H](Cc1ccccc1)NC(=O)[C@H](CO)NC(=O)[C@H](CC(=O)O)NC(=O)[C@H](Cc1cnc[nH]1)NC(=O)[C@H](CCSC)NC(=O)[C@@H](N)CC(=O)O)C(N)=O (HELM PEPTIDE1{D.M.H.D.S.F.[meF].G.L.M.[am]}$$$$V2.0)
a: 8.44

q: Quote pIC50 with test system Neuromedin-K receptor (Homo sapiens, UniProt P29371) for CSCC[C@H](NC(=O)[C@H](CC(C)C)NC(=O)CNC(=O)[C@H](Cc1ccccc1)N(C)C(=O)[C@H](Cc1ccccc1)NC(=O)[C@H](CC(=O)O)NC(=O)[C@H](CC(=O)O)NC(=O)[C@H](Cc1cnc[nH]1)NC(=O)[C@H](CCSC)NC(=O)[C@@H](N)CC(=O)O)C(N)=O (HELM PEPTIDE1{D.M.H.D.D.F.[meF].G.L.M.[am]}$$$$V2.0)
a: 7.42

q: With Neuromedin-K receptor (Homo sapiens, UniProt P29371) as the test system, provide measured pIC50 for this compound: CSCC[C@H](NC(=O)[C@H](CC(C)C)NC(=O)CNC(=O)[C@H](Cc1ccccc1)N(C)C(=O)[C@H](Cc1ccccc1)NC(=O)[C@@H]1CCCN1C(=O)[C@H](CC(=O)O)NC(=O)[C@H](Cc1cnc[nH]1)NC(=O)[C@H](CCSC)NC(=O)[C@@H](N)CC(=O)O)C(N)=O (HELM PEPTIDE1{D.M.H.D.P.F.[meF].G.L.M.[am]}$$$$V2.0)
a: 7.35

----------
Target: Neuromedin-K receptor (Homo sapiens)
Assay: Agonist activity at NK3R (unknown origin) transfected in CHO cells assessed as calcium influx […]
Residues, ends and D or L forms follow the SMILES beside them.
property_name: EC50

q: Please report the measured EC50 for CSCC[C@H](NC(=O)[C@H](CC(C)C)NC(=O)CNC(=O)[C@H](Cc1ccccc1)N(C)C(=O)[C@H](Cc1ccccc1)NC(=O)[C@H](CC(N)=O)NC(=O)[C@H](CC(=O)O)NC(=O)[C@H](Cc1cnc[nH]1)NC(=O)[C@H](CCSC)NC(=O)[C@@H](N)CC(=O)O)C(N)=O (HELM PEPTIDE1{D.M.H.D.N.F.[meF].G.L.M.[am]}$$$$V2.0)
a: 0.036 nM

q: Quick one: give measured EC50 for CSCC[C@H](NC(=O)[C@H](CC(C)C)NC(=O)CNC(=O)[C@H](Cc1ccccc1)N(C)C(=O)[C@H](Cc1ccccc1)NC(=O)[C@@H](NC(=O)[C@H](CC(=O)O)NC(=O)[C@H](Cc1cnc[nH]1)NC(=O)[C@H](CCSC)NC(=O)[C@@H](N)CC(=O)O)C(C)C)C(N)=O (HELM PEPTIDE1{D.M.H.D.V.F.[meF].G.L.M.[am]}$$$$V2.0)
a: 0.065 nM

q: Determine its reported EC50: CSCC[C@H](NC(=O)[C@H](CC(C)C)NC(=O)CNC(=O)[C@H](Cc1ccccc1)N(C)C(=O)[C@H](Cc1ccccc1)NC(=O)[C@H](C)NC(=O)[C@H](CC(=O)O)NC(=O)[C@H](Cc1cnc[nH]1)NC(=O)[C@H](CCSC)NC(=O)[C@@H](N)CC(=O)O)C(N)=O (HELM PEPTIDE1{D.M.H.D.A.F.[meF].G.L.M.[am]}$$$$V2.0)
a: 0.012 nM

----------
Target: Substance-P receptor (Homo sapiens) (UniProt P25103)
Assay: Displacement of [125I]-BH-SP from NK1R (unknown origin) transfected in CHO cells at 10 uM by gamma counting analysis
Type: cell-based
Residues, ends and D or L forms follow the SMILES beside them.
Please respond with reported inhibition for every item in the list.

q: Tell us which inhibition value is on record for CSCC[C@H](NC(=O)[C@H](CC(C)C)NC(=O)CNC(=O)[C@H](Cc1ccccc1)N(C)C(=O)[C@H](Cc1ccccc1)NC(=O)[C@H](Cc1ccc(O)cc1)NC(=O)[C@H](CC(=O)O)NC(=O)[C@H](Cc1cnc[nH]1)NC(=O)[C@H](CCSC)NC(=O)[C@@H](N)CC(=O)O)C(N)=O (HELM PEPTIDE1{D.M.H.D.Y.F.[meF].G.L.M.[am]}$$$$V2.0)
a: < 10%

q: Output inhibition of CSCC[C@H](NC(=O)[C@H](CC(C)C)NC(=O)CNC(=O)[C@H](Cc1ccccc1)N(C)C(=O)[C@H](Cc1ccccc1)NC(=O)[C@H](CC(=O)O)NC(=O)[C@H](CC(=O)O)NC(=O)[C@@H]1CCCN1C(=O)[C@H](CC(N)=O)NC(=O)[C@@H]1CCCN1C(=O)[C@@H]1CCC(=O)N1)C(N)=O (HELM PEPTIDE1{[Glp].P.N.P.D.D.F.[meF].G.L.M.[am]}$$$$V2.0)
a: < 10%

q: Consider the compound CSCC[C@H](NC(=O)[C@H](CC(C)C)NC(=O)CNC(=O)[C@H](Cc1ccccc1)N(C)C(=O)[C@H](Cc1ccccc1)NC(=O)[C@H](Cc1cnc[nH]1)NC(=O)[C@H](CC(=O)O)NC(=O)[C@H](Cc1cnc[nH]1)NC(=O)[C@H](CCSC)NC(=O)[C@@H](N)CC(=O)O)C(N)=O (HELM PEPTIDE1{D.M.H.D.H.F.[meF].G.L.M.[am]}$$$$V2.0) . State its measured inhibition.
a: < 10%
